target: hCB1 (Homo sapiens, UniProt P21554); assay: bioSensAll ebBRET signaling profiling, hCB1; assay type: cell-based; parameters: host or cells: HEK293SL cells, transient PEI transfection; conditions: Log [Compound] (M) -11.4949; single replicate values, FigS6a
Sequence (P21554 whole entry): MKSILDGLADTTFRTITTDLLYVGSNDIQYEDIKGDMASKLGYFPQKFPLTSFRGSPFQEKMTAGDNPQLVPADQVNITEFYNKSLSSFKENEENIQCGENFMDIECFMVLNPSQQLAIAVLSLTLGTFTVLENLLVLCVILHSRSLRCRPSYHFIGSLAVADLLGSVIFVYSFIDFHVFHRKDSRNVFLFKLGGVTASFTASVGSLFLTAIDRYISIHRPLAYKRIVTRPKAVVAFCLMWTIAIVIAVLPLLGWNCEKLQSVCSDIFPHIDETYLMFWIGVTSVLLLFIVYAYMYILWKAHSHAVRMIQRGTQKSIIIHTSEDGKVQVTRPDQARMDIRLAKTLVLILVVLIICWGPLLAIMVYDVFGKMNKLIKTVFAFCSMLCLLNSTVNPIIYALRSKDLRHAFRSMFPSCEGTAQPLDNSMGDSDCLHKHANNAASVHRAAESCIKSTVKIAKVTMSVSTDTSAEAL
Measurement type: GoB hCB1

- COC(=O)[C@@H]1[C@@H]2CC[C@@H]2CN1C(=O)c1cc(C)n(-c2cccc(C(F)(F)F)c2)n1: -1.305
- Brc1cc2c(cc1Cc1noc(-c3cnn(CC4CC4)c3)n1)OCO2: -5.51
- Cc1cc(C(=O)N(C)C(c2ccco2)c2ccco2)nn1-c1cccc(C(F)(F)F)c1: -1.305
- Cc1c(C(=O)OCC2CSc3ccccc3O2)cnn1Cc1ccccc1 (centres unmarked): -5.562
- CC(=O)C(c1cccs1)N(C)C(=O)c1cc(C)n(-c2cccc(C(F)(F)F)c2)n1 (centres unmarked): 1.392
